Ref: paper PMC11513920

system: HepaRG cells; assay: HepaRG cellular uptake; details: 20 μM, HSA formulation 5:1, recorded after 3 h incubation
HepaRG Cmax values, listed per item
Value kind: HepaRG Cmax

>>> print(df.to_string())
                                   molecule   test_target      endpoint_value
0  CCCCCCCCCCCCCCCCOCCCOP(=O)(O)CO[C@H](C)Cn1cnc2c(N)ncnc21  HepaRG cells   397.1 ± 1.4 ng/mL
1  C[C@H](Cn1cnc2c(N)ncnc21)OCP(=O)(O)OCCCSCCCCCCCCCCCCC1CCCCC1.N [16h]  HepaRG cells  1412.4 ± 1.5 ng/mL
2  C[C@H](Cn1cnc2c(N)ncnc21)OCP(=O)(O)OCCCSCCCCCCCCCCCCc1ccc(F)cc1.N [16g]  HepaRG cells   209.8 ± 0.2 ng/mL
3  C[C@H](Cn1cnc2c(N)ncnc21)OCP(=O)(O)OCCCOCCCCCCCCCCCCCCCC(F)(F)F.N  HepaRG cells   337.4 ± 1.0 ng/mL

---

assay: in vitro; conditions: human, other cell line, HepaRG t1/2, after 3 h loading at 20 μM, 37 °C
Value kind: half-life

In [3]: df
Out[3]:
                                   compound  endpoint_value
0  CCCCCCCCCCCCCCCCOCCCOP(=O)(O)CO[C@H](C)Cn1cnc2c(N)ncnc21 [TXL, tenofovir exalidex]    43 to 44 min

---

experiment: Mouse tissue (liver, kidney, brain) pharmacokinetics after oral dose; assay type: in vivo, male C57BL/6 mice; settings: male, C57BL/6, mouse, po; liver, prodrug, p.o. 10 mg/kg; read-out: AUC0–24h
Value kind: AUC(0-t) at 24 h (ng·h/mL)

                                   molecule        value_kind  endpoint_value
0  C[C@H](Cn1cnc2c(N)ncnc21)OCP(=O)(O)OCCCSCCCCCCCCCCCCC1CCCCC1.N [16h]  AUC(0-t) at 24 h           27300
1  C[C@H](Cn1cnc2c(N)ncnc21)OCP(=O)(O)OCCCSCCCCCCCCCCCCc1ccc(F)cc1.N [16g]  AUC(0-t) at 24 h           63600
2  CCCCCCCCCCCCCCCCSCCCOP(=O)(O)CO[C@H](C)Cn1cnc2c(N)ncnc21.N  AUC(0-t) at 24 h            6450

---

test: Mouse plasma pharmacokinetics after oral dose; format: in vivo, male C57BL/6 mice; conditions: male, C57BL/6, mouse, po; plasma, prodrug, p.o. 10 mg/kg; read-out: AUC0–24h
AUC(0-t) at 24 h values, listed per item
Value kind: AUC(0-t) at 24 h (ng·h/mL)

>>> print(df.to_string())
                                   compound  endpoint_value
0  C[C@H](Cn1cnc2c(N)ncnc21)OCP(=O)(O)OCCCSCCCCCCCCCCCCc1ccc(F)cc1.N [16g]             260
1  C[C@H](Cn1cnc2c(N)ncnc21)OCP(=O)(O)OCCCSCCCCCCCCCCCCC1CCCCC1.N [16h]            1070
2  CCCCCCCCCCCCCCCCSCCCOP(=O)(O)CO[C@H](C)Cn1cnc2c(N)ncnc21.N             219
